test-details: qHTS Assay for Identifying Gametocytocidal Compounds (AID 743244);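 also: % is scaled to controls: 0 for no effect and ±100 for the full control effect; actives lower the fluorescent signal which means gametocytes are killed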
setup-conditions: P. falciparum 3D7 stage III-V gametocytes, alamarBlue, 72 h; hits give low values
Results filed as inconclusive are left out. Activity calls are given as the source filed them. Calls follow the shape of the dose curve; as a rule, active = well fitted curve in the direction sought with a large enough effect; inconclusive = small, poorly fitted or top-dose-only effect, or another doubt; inactive = no such curve, though single readings can be large or run the other way. Where a SMILES comes first, the peptide text is derived from it. [ ]: non-standard residue; d: D form. pGlu = O=C1CC[C@@H](C(=O)O)N1
I'd appreciate it if you could supply max response values for the items below.

Answer for every listed entry: what is its max response? The entries follow.
1. CCCC(=O)O
2. CN(C)C=Nc1c(I)cc(I)c(CCC(=O)O)c1I
3. CC(=O)Nc1ccc(OC(=O)c2ccccc2O)cc1
4. CC[C@H](C)[C@H](NC(=O)[C@H](Cc1ccccc1)NC(=O)[C@H](C)NC(=O)[C@H](CC(=O)O)NC(=O)[C@H](CCCCN)NC(=O)[C@H](CO)NC(=O)[C@@H]1CCCN1C(=O)[C@@H]1CCC(=O)N1)C(=O)NCC(=O)N[C@@H](CC(C)C)C(=O)N[C@@H](CCSC)C(N)=O ([pGlu]PSKDAFIGLM-NH2)

A.
-0.429% (inactive)
14.5% (inactive)
-4.48% (inactive)
13.3% (inactive)

----------
System: DIV17
test-details: qHTS profiling for inhibitors of Plasmodium falciparum proliferation (AID 504749);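 also: 0% = DMSO vehicle and full inhibition = artemisinin control; nearly all actives have a fitted effect of over 60% in size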
setup-conditions: P. falciparum in erythrocytes, SYBR Green DNA, 72 h; series mostly up to 28.7 µM
Procedure: NIH National Institute of Allergy and Infectious Diseases [NIAID] NIH Chemical Genomics Center [NCGC] […] Because mature erythrocytes lack DNA, only Plasmodium-derived DNA is detected. NCGC Assay Protocol Summary: The SYBR Green viability assay was adapted from a method described previously (Plouffe et al., 2008). […] The following morning, fluorescence intensity at 485(14) nm excitation and 535(25) nm emission wavelengths was measured on an EnVision (Perkin Elmer) plate reader. […]
Inconclusive results are not listed. Calls of active or inactive are those of the source. Calls come from the whole dose curve; as a rule, active = well fitted inhibition curve with a large enough effect; inconclusive = small, poorly fitted or top-dose-only effect; inactive = flat fitted curve, though single readings scatter.
Outcomes you can answer with include only these: active, inactive

Example entries and their recorded answers appear below.
CN1C(C(=O)Nc2ccccn2)C(=O)c2sc(Cl)cc2S1(=O)=O (centres undefined) ... inactive
CC(C)CCCCCCc1ccc(O)cc1 ... inactive
CC/C(=C(/CC)c1ccc(OP(=O)(O)O)cc1)c1ccc(OP(=O)(O)O)cc1 ... inactive
Cc1cc(-c2ccc(N=Nc3ccc4c(S(=O)(=O)O)cc(S(=O)(=O)O)c(N)c4c3O)c(C)c2)ccc1N=Nc1ccc2c(S(=O)(=O)O)cc(S(=O)(=O)O)c(N)c2c1O ... inactive
Cc1cc2nc3c(=O)[nH]c(=O)nc-3n(C[C@H](O)[C@H](O)[C@H](O)COP(=O)(O)OP(=O)(O)OC[C@H]3O[C@@H](n4cnc5c(N)ncnc54)[C@H](O)[C@@H]3O)c2cc1C ... inactive
C[C@]12CCC(=O)C[C@@H]1CC[C@@H]1[C@@H]2CC[C@]2(C)C=CC[C@@H]12 ... inactive

Q. State the result this test recorded for `Nc1nc(=O)n([C@@H]2CS[C@H](CO)O2)cc1F` .
A. inactive

Q. State the result this test recorded for `CC(=O)Oc1cccc(C(=O)O)c1OC(C)=O` .
A. inactive

Q. State the result this test recorded for `CC(C)[C@@H](N)C(=O)O` .
A. inactive

Q. State the result this test recorded for `O=P(O)(O)OC[C@H](O)CO` .
A. inactive

Q. State the result this test recorded for `CCN(CC)C(=S)S` .
A. inactive

----------
Tested on: DIV30
test-details: qHTS profiling for inhibitors of Plasmodium falciparum proliferation (AID 504749);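 also: 0% = DMSO vehicle and full inhibition = artemisinin control; nearly all actives have a fitted effect of over 60% in size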
setup-conditions: P. falciparum in erythrocytes, SYBR Green DNA, 72 h; series mostly up to 28.7 µM
Inconclusive results are not listed. The source made the active and inactive calls. Calls follow the shape of the dose curve; as a rule, active = well fitted inhibition curve with a large enough effect; inconclusive = small, poorly fitted or top-dose-only effect; inactive = flat fitted curve, though single readings scatter.
Outcomes you can answer with include only these: T = active, F = inactive

O=C1[O][Bi][O]c2ccccc21 ... F
N[C@H](CC(=O)O)C(=O)O ... F
Cc1cccc(C)c1NC(=O)C1CCCCN1C (stereo not drawn) ... F
CC1CCCCN1CCCOC(=O)c1ccccc1 (stereo not drawn) ... F
O=C(/C=C/c1cccc(F)c1)NC1CC1 ... F

Q. State the result this test recorded for `CCOc1ccc(NC(=S)Nc2ccc(OCC)cc2)cc1` .
A. F

Q. State the result this test recorded for `CC(/C=C/C=C(\C)C(=O)O[C@@H]1O[C@H](CO[C@@H]2O[C@H](CO)[C@@H](O)[C@H](O)[C@H]2O)[C@@H](O)[C@H](O)[C@H]1O)=C\C=C\C=C(C)\C=C\C=C(/C)C(=O)O[C@@H]1O[C@H](CO[C@@H]2O[C@H](CO)[C@@H](O)[C@H](O)[C@H]2O)[C@@H](O)[C@H](O)[C@H]1O` .
A. F

Q. State the result this test recorded for `C=CCOc1ccc(CC(=O)O)cc1Cl` .
A. F

Q. State the result this test recorded for `O=[N+]([O-])c1c(Cl)cccc1-c1c[nH]cc1Cl` .
A. F

Q. State the result this test recorded for `Cc1cccc(Nc2ncccc2C(=O)O)c1C` .
A. F

Q. State the result this test recorded for `CC(=O)Oc1cc(C(F)(F)F)ccc1C(=O)O` .
A. F

Q. State the result this test recorded for `CN(C)C=Nc1c(I)cc(I)c(CCC(=O)O)c1I` .
A. F

----------
test-details: Cell Viability - Jurkat (AID 426);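 also: potency is read from the fitted curve at half-maximal effect; cells exposed to compound for 40 hours at 37 °C before ATP read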
setup-conditions: qHTS
Records with an inconclusive call do not appear. Active and inactive are the calls of the source.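 The calls were made as follows: active = dose-dependent loss of cell ATP signal giving a full or clear fitted curve, ranked by lower potency value; inconclusive = weak partial curve or response only at the top dose; inactive = no loss of viability signal.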
Outcomes you can answer with include only these: active, inactive

C=C1C(CCl)(CCl)C2(Cl)C(Cl)C(Cl)C1(Cl)C2(Cl)Cl (stereo not given) ... active
NCCN ... inactive
OCC(O)CO ... inactive
OB(O)O ... inactive

Continue with the next compound.
Q. State the result this test recorded for O=c1n(CC2CO2)c(=O)n(CC2CO2)c(=O)n1CC1CO1 (stereo not given) .
A. active

----------
test-details: qHTS assay for small molecule activators of the nuclear factor-kappa B (NF-kB) signaling pathway (AID 651749); also: % of control where 0% means no effect
setup-conditions: NF-kB-bla ME-180 cells, beta-lactamase FRET ratio, 16 h; hits give high values
Records with an inconclusive call do not appear.
I'd appreciate it if you could supply activation values for the items below.
One number for each entry, in %.

Example cases with answers are listed next.
Cc1ncc[nH]1 ... 0.166
CC(C)O ... -0.863
OC[C@H]1O[C@@](CO)(O[C@H]2O[C@H](CO)[C@@H](O)[C@H](O)[C@H]2O)[C@@H](O)[C@@H]1O ... -1.26
C=C1C(CCl)(CCl)C2(Cl)C(Cl)C(Cl)C1(Cl)C2(Cl)Cl (configuration not stated) ... 0.534
C[C@H](CCC(=O)O)[C@H]1CC[C@H]2[C@@H]3CC[C@@H]4C[C@H](O)CC[C@]4(C)[C@H]3C[C@H](O)[C@]12C ... 0.346

Answer for every listed entry: what is its activation? The entries follow.
1. [O-][N+](=Nc1ccccc1)c1ccccc1
2. NC(N)=O

A.
0.0708
1.05

----------
assayed-target: Peroxisome proliferator-activated receptor alpha (Homo sapiens) (UniProt Q07869)
Sequence (Q07869 whole entry, looked up): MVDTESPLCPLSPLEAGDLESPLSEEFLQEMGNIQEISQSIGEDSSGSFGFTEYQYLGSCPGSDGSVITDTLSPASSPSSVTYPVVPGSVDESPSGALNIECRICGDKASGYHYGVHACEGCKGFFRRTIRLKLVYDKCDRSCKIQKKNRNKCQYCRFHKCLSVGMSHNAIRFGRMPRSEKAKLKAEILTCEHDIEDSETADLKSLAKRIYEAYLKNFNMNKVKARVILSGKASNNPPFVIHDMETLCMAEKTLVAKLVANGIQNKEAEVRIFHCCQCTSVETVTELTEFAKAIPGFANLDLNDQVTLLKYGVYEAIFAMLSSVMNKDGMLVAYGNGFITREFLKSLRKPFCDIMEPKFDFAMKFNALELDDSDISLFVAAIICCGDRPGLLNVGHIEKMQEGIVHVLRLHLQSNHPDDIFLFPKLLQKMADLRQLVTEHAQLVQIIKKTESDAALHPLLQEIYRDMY
test-details: qHTS assay for small molecule agonists of the peroxisome proliferator-activated receptor alpha (PPARalpha) signaling pathway (AID 651778); also: % of control where 0% means no effect
setup-conditions: PathHunter PPARalpha complementation, chemiluminescence, 6 h; hits give high values
I'd appreciate it if you could supply max response values for the items below.
Give bare numbers, in %.

Answer for every listed entry: what is its max response? The entries follow.
1. CC(C)[C@@H]1CC[C@@H](C)C[C@H]1O
2. CCCCC(CC)COS(=O)(=O)O (stereo unspecified)
3. CCCCCCCCCCCCCCCCCC(=O)OC[C@@H](O)[C@H]1OC[C@H](O)[C@H]1O
4. CCOC(C)OCC
5. NCCN

A.
-1.09
-1.27
12.5
-1.13
-6.55

Q. Using the record for `C[C@H](CCC(=O)O)[C@H]1CC[C@H]2[C@@H]3[C@H](O)C[C@@H]4C[C@H](O)CC[C@]4(C)[C@H]3C[C@H](O)[C@]12C` , report its max response.
A. 0.161

----------
System: CP335
test-details: qHTS profiling for inhibitors of Plasmodium falciparum proliferation (AID 504749);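 also: 0% = DMSO vehicle and full inhibition = artemisinin control; nearly all actives have a fitted effect of over 60% in size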
setup-conditions: P. falciparum in erythrocytes, SYBR Green DNA, 72 h; series mostly up to 28.7 µM
Results filed as inconclusive are left out. Activity calls are given as the source filed them. Calls follow the shape of the dose curve; as a rule, active = well fitted inhibition curve with a large enough effect; inconclusive = small, poorly fitted or top-dose-only effect; inactive = flat fitted curve, though single readings scatter.
Outcomes you can answer with include only these: 1 (active), -1 (inactive)

CC(=O)Oc1cccc(C(=O)O)c1OC(C)=O ... -1
CCCCCCCCCCCCCCCCOCCOCCOCCOCCOCCOCCOCCOCCOCCOCCOCCOCCOCCOCCOCCOCCOCCOCCOCCOCCO ... -1
CCCC(=O)O ... -1
CCC(Cc1c(I)cc(I)c(O)c1I)C(=O)O (configuration not stated) ... -1
[O-][N+](=Nc1ccccc1)c1ccccc1 ... -1

Continue with the next compound.
Q. State the result this test recorded for `COc1ccccc1N1CCN(CCCC(=O)c2ccc(F)cc2)CC1` .
A. -1
